experiment: Metabolic stability of liver microsomes, human; format: in vitro ADME; conditions: NADPH, 0-45 min, read-out: CLint(μL/min/mg protein) Human

{"test_smiles": "Cc1cc2cc(n1)-c1cnccc1OCCC[C@@H](C)Cn1c(nc3cc(F)c(N4CCC5(CC4)CCN(C4COC4)CC5)cc31)NC2=O", "units_symbol": "µL/min/mg", "microsomal CLint": 41.5}
{"test_smiles": "Cc1cc2cc(n1)-c1cnccc1OCCCCCn1c(nc3cc(C)c(N4CCC5(CCN(C)CC5)CC4)cc31)NC2=O", "units_symbol": "µL/min/mg", "microsomal CLint": 4}
{"test_smiles": "Cc1cc2cc(n1)-c1cnccc1OCCC[C@@H](C)Cn1c(nc3ccc(N4CCC5(CC4)CCN(C4COC4)CC5)cc31)NC2=O", "units_symbol": "µL/min/mg", "microsomal CLint": 26.3}
